The values you see were collected from patent US12637465B2.

- experimental protocol: Solid form stability study of salts and/or co-crystals at 25° C./60% RH and 40° C./75% RH
- Type: physicochemical
- experimental setup: 2 weeks, 40° C./75% RH
metric: Purity (Area %)
Kindly answer with a numeric value in Area %, unit omitted.

Worked examples follow.
INSERT INTO results (molecule, metric, value_unit, val) VALUES
  ('C[C@H](O)C(=O)C1=Nc2c(nc(N)[nH]c2=O)NC1 [Glycolate, sepiapterin]', 'Purity (Area %)', 'Area %', 98.52),
  ('C[C@H](O)C(=O)C1=Nc2c(nc(N)[nH]c2=O)NC1 [L-Tartrate, sepiapterin]', 'Purity (Area %)', 'Area %', 99.00),
  ('C[C@H](O)C(=O)C1=Nc2c(nc(N)[nH]c2=O)NC1 [Malonate, sepiapterin]', 'Purity (Area %)', 'Area %', 97.81);

[in] Consider the molecule shown here: C[C@H](O)C(=O)C1=Nc2c(nc(N)[nH]c2=O)NC1 [Toluenesulfonate, sepiapterin] What is its recorded Purity (Area %)?
[out] 88.12

[in] Consider the molecule shown here: C[C@H](O)C(=O)C1=Nc2c(nc(N)[nH]c2=O)NC1 [Nicotinate, sepiapterin] What is its recorded Purity (Area %)?
[out] 97.41

[in] Consider the molecule shown here: C[C@H](O)C(=O)C1=Nc2c(nc(N)[nH]c2=O)NC1 [Gentisate, sepiapterin] What is its recorded Purity (Area %)?
[out] 93.37

[in] Consider the molecule shown here: C[C@H](O)C(=O)C1=Nc2c(nc(N)[nH]c2=O)NC1 [Methanesulfonate, sepiapterin] What is its recorded Purity (Area %)?
[out] 85.97

[in] Consider the molecule shown here: C[C@H](O)C(=O)C1=Nc2c(nc(N)[nH]c2=O)NC1 [Fumarate, sepiapterin] What is its recorded Purity (Area %)?
[out] 98.98

###

- experimental protocol: Solid form stability study of salts and/or co-crystals at 25° C./60% RH and 40° C./75% RH
- Format: physicochemical
- experimental setup: 1 week, 40° C./75% RH
Documented Purity (Area %) across a set of compounds
Kindly answer with a numeric value in Area %, unit omitted.

Worked examples follow.
INSERT INTO results (compound, metric, val) VALUES
  ('C[C@H](O)C(=O)C1=Nc2c(nc(N)[nH]c2=O)NC1 [Gentisate, sepiapterin]', 'Purity (Area %)', 96.89),
  ('C[C@H](O)C(=O)C1=Nc2c(nc(N)[nH]c2=O)NC1 [L-Tartrate, sepiapterin]', 'Purity (Area %)', 99.06),
  ('C[C@H](O)C(=O)C1=Nc2c(nc(N)[nH]c2=O)NC1 [Nicotinate, sepiapterin]', 'Purity (Area %)', 97.30);

Then there is this compound:
[in] Consider the compound shown here: C[C@H](O)C(=O)C1=Nc2c(nc(N)[nH]c2=O)NC1 [Sulfate, sepiapterin] What is its recorded Purity (Area %)?
[out] 89.44

###

- experimental protocol: Solid form stability study of salts and/or co-crystals at 25° C./60% RH and 40° C./75% RH
- Type: physicochemical
- experimental setup: 1 week, 25° C./60% RH
Documented Purity (Area %) across a set of compounds
Kindly answer with a numeric value in Area %, unit omitted.

INSERT INTO measurements (compound, value_unit, val) VALUES
  ('C[C@H](O)C(=O)C1=Nc2c(nc(N)[nH]c2=O)NC1 [Nicotinate, sepiapterin]', 'Area %', 97.43),
  ('C[C@H](O)C(=O)C1=Nc2c(nc(N)[nH]c2=O)NC1 [Fumarate, sepiapterin]', 'Area %', 99.39),
  ('C[C@H](O)C(=O)C1=Nc2c(nc(N)[nH]c2=O)NC1 [HCI, sepiapterin]', 'Area %', 97.19);

Then there is this compound:
[in] Consider the compound shown here: C[C@H](O)C(=O)C1=Nc2c(nc(N)[nH]c2=O)NC1 [Gentisate, sepiapterin] What is its recorded Purity (Area %)?
[out] 97.66

###

- experimental protocol: Solid form stability study of salts and/or co-crystals at 25° C./60% RH and 40° C./75% RH
- Format: physicochemical
- experimental setup: 2 weeks, 40° C./75% RH
metric: Purity vs. initial (%)
Kindly answer with a numeric value in %, unit omitted.

Worked examples follow.
INSERT INTO results (compound, metric, value_unit, val) VALUES
  ('C[C@H](O)C(=O)C1=Nc2c(nc(N)[nH]c2=O)NC1 [HCI, sepiapterin]', 'Purity vs. initial (%)', '%', 89.6),
  ('C[C@H](O)C(=O)C1=Nc2c(nc(N)[nH]c2=O)NC1 [Glycolate, sepiapterin]', 'Purity vs. initial (%)', '%', 99.3),
  ('C[C@H](O)C(=O)C1=Nc2c(nc(N)[nH]c2=O)NC1 [Sulfate, sepiapterin]', 'Purity vs. initial (%)', '%', 90.6),
  ('C[C@H](O)C(=O)C1=Nc2c(nc(N)[nH]c2=O)NC1 [Benzenesulfonate, sepiapterin]', 'Purity vs. initial (%)', '%', 91.6),
  ('C[C@H](O)C(=O)C1=Nc2c(nc(N)[nH]c2=O)NC1 [Gentisate, sepiapterin]', 'Purity vs. initial (%)', '%', 102.1);

[in] Consider the compound shown here: C[C@H](O)C(=O)C1=Nc2c(nc(N)[nH]c2=O)NC1 [Fumarate, sepiapterin] What is its recorded Purity vs. initial (%)?
[out] 99.5

[in] Consider the compound shown here: C[C@H](O)C(=O)C1=Nc2c(nc(N)[nH]c2=O)NC1 [Malonate, sepiapterin] What is its recorded Purity vs. initial (%)?
[out] 98.3

[in] Consider the compound shown here: C[C@H](O)C(=O)C1=Nc2c(nc(N)[nH]c2=O)NC1 [Toluenesulfonate, sepiapterin] What is its recorded Purity vs. initial (%)?
[out] 91.0

[in] Consider the compound shown here: C[C@H](O)C(=O)C1=Nc2c(nc(N)[nH]c2=O)NC1 [L-Tartrate, sepiapterin] What is its recorded Purity vs. initial (%)?
[out] 99.3

[in] Consider the compound shown here: C[C@H](O)C(=O)C1=Nc2c(nc(N)[nH]c2=O)NC1 [Nicotinate, sepiapterin] What is its recorded Purity vs. initial (%)?
[out] 100.3

[in] Consider the compound shown here: C[C@H](O)C(=O)C1=Nc2c(nc(N)[nH]c2=O)NC1 [Methanesulfonate, sepiapterin] What is its recorded Purity vs. initial (%)?
[out] 94.3

[in] Consider the compound shown here: C[C@H](O)C(=O)C1=Nc2c(nc(N)[nH]c2=O)NC1 [Phosphate, sepiapterin] What is its recorded Purity vs. initial (%)?
[out] 97.7

###

- experimental protocol: Solid form stability study of salts and/or co-crystals at 25° C./60% RH and 40° C./75% RH
- Type: physicochemical
- experimental setup: 2 weeks, 25° C./60% RH
metric: Form change

INSERT INTO measurements (compound, val) VALUES
  ('C[C@H](O)C(=O)C1=Nc2c(nc(N)[nH]c2=O)NC1 [L-Tartrate, sepiapterin]', 'No'),
  ('C[C@H](O)C(=O)C1=Nc2c(nc(N)[nH]c2=O)NC1 [HCI, sepiapterin]', 'No'),
  ('C[C@H](O)C(=O)C1=Nc2c(nc(N)[nH]c2=O)NC1 [Phosphate, sepiapterin]', 'No'),
  ('C[C@H](O)C(=O)C1=Nc2c(nc(N)[nH]c2=O)NC1 [Nicotinate, sepiapterin]', 'No');

###

Documented Purity (Area %) across a set of molecules
- experimental protocol: Solid form stability study of salts and/or co-crystals at 25° C./60% RH and 40° C./75% RH
- Format: physicochemical
- experimental setup: 1 week, 25° C./60% RH
Kindly answer with a numeric value in Area %, unit omitted.

Worked examples follow.
INSERT INTO assay_data (molecule, metric, val) VALUES
  ('C[C@H](O)C(=O)C1=Nc2c(nc(N)[nH]c2=O)NC1 [Benzenesulfonate, sepiapterin]', 'Purity (Area %)', 90.68),
  ('C[C@H](O)C(=O)C1=Nc2c(nc(N)[nH]c2=O)NC1 [L-Tartrate, sepiapterin]', 'Purity (Area %)', 98.61),
  ('C[C@H](O)C(=O)C1=Nc2c(nc(N)[nH]c2=O)NC1 [Glycolate, sepiapterin]', 'Purity (Area %)', 98.93),
  ('C[C@H](O)C(=O)C1=Nc2c(nc(N)[nH]c2=O)NC1 [Phosphate, sepiapterin]', 'Purity (Area %)', 95.35),
  ('C[C@H](O)C(=O)C1=Nc2c(nc(N)[nH]c2=O)NC1 [Malonate, sepiapterin]', 'Purity (Area %)', 99.39),
  ('C[C@H](O)C(=O)C1=Nc2c(nc(N)[nH]c2=O)NC1 [Sulfate, sepiapterin]', 'Purity (Area %)', 95.22),
  ('C[C@H](O)C(=O)C1=Nc2c(nc(N)[nH]c2=O)NC1 [Toluenesulfonate, sepiapterin]', 'Purity (Area %)', 94.19);

[in] Consider the molecule shown here: C[C@H](O)C(=O)C1=Nc2c(nc(N)[nH]c2=O)NC1 [Methanesulfonate, sepiapterin] What is its recorded Purity (Area %)?
[out] 95.26
